Data provenance is PubChem BioAssay AID1159580.

assay: chemical genetic growth profiling, strain panel (AID 1159580);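 further: tested at 20 µM; growth read once vehicle control cultures reached saturation at 30 °C; lower values mean less growth of the strain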; settings: S. cerevisiae deletion strains, growth OD, locus YDL185W, strain tfp1
The campaign covered roughly 5,500 compounds. About 2,000 (36%) were called active. About 18% were inconclusive and are not listed. No stated cut-off is given here; in the data, active means normalized growth mostly below about 0.91 (no sharp cut-off); inconclusive means no clear call, values can overlap the other calls; inactive means mostly above about 0.92. This is one part of the list.
Classes used: active, inactive

{"columns": ["compound", "qualitative.label"],
 "data": [
  ["Cc1cc(=O)c2c(O)cc(O)c(C)c2o1", "inactive"],
  ["CN=C(NC#N)NCCSCc1nc[nH]c1C", "inactive"],
  ["CC(=O)O[C@H]1C(=O)[C@@]2(C)C([C@H](OC(=O)c3ccccc3)[C@]3(O)C[C@H](OC(=O)[C@H](O)[C@@H](NC(=O)c4ccccc4)c4ccccc4)C(C)=C1C3(C)C)[C@]1(OC(C)=O)CO[C@@H]1C[C@@H]2O (stereo not given in full)", "inactive"],
  ["CCC1(c2ccc(N)cc2)CCC(=O)NC1=O (stereo not given)", "inactive"],
  ["C=CC(C)(C)c1c2c(c(O)c3c(=O)c4ccc(O)c(O)c4oc13)C=CC(C)(C)O2", "inactive"],
  ["Cn1cc[nH]c1=S", "inactive"],
  ["Cc1c(O)cc(O)c2c(=O)c(-c3ccc(O)cc3)coc12", "inactive"],
  ["Cc1cc(C(C)(C)CC(C)(C)C)ccc1OCCOCC[N+](C)(C)Cc1ccccc1", "active"],
  ["NC(N)=Nc1nc(CSCCC(N)=NS(N)(=O)=O)cs1", "inactive"],
  ["Cc1c(N(C)C)c(=O)n(-c2ccccc2)n1C", "inactive"]
]}
